# recordedConditions: in ethanol, 328.15 K
Here, each record is paired with measured solubility (mole fraction) data.
Note: the reply should be a number with no unit written.

Some solved entries appear below for comparison.
COc1cc(-c2cc(-c3ccc(O)cc3)[nH]c(=O)c2C#N)ccc1O
0.00103
COc1ccc(-c2cc(-c3ccc(O)c(OC)c3)c(C#N)c(=O)[nH]2)cc1
0.000953
COc1cc(-c2cc(-c3ccc(F)cc3)[nH]c(=O)c2C#N)ccc1O
0.00106
COc1cc(-c2cc(-c3ccc(Cl)cc3)[nH]c(=O)c2C#N)ccc1O
0.001

State its solubility (mole fraction): "COc1cc(-c2cc(-c3ccc(Br)cc3)[nH]c(=O)c2C#N)ccc1O"
0.000972

Reference for the values: BigSolDB 2.1
